Value source: ChEMBL document CHEMBL4825745

target-entity: UniProt:O95785
Sequence (O95785 whole entry): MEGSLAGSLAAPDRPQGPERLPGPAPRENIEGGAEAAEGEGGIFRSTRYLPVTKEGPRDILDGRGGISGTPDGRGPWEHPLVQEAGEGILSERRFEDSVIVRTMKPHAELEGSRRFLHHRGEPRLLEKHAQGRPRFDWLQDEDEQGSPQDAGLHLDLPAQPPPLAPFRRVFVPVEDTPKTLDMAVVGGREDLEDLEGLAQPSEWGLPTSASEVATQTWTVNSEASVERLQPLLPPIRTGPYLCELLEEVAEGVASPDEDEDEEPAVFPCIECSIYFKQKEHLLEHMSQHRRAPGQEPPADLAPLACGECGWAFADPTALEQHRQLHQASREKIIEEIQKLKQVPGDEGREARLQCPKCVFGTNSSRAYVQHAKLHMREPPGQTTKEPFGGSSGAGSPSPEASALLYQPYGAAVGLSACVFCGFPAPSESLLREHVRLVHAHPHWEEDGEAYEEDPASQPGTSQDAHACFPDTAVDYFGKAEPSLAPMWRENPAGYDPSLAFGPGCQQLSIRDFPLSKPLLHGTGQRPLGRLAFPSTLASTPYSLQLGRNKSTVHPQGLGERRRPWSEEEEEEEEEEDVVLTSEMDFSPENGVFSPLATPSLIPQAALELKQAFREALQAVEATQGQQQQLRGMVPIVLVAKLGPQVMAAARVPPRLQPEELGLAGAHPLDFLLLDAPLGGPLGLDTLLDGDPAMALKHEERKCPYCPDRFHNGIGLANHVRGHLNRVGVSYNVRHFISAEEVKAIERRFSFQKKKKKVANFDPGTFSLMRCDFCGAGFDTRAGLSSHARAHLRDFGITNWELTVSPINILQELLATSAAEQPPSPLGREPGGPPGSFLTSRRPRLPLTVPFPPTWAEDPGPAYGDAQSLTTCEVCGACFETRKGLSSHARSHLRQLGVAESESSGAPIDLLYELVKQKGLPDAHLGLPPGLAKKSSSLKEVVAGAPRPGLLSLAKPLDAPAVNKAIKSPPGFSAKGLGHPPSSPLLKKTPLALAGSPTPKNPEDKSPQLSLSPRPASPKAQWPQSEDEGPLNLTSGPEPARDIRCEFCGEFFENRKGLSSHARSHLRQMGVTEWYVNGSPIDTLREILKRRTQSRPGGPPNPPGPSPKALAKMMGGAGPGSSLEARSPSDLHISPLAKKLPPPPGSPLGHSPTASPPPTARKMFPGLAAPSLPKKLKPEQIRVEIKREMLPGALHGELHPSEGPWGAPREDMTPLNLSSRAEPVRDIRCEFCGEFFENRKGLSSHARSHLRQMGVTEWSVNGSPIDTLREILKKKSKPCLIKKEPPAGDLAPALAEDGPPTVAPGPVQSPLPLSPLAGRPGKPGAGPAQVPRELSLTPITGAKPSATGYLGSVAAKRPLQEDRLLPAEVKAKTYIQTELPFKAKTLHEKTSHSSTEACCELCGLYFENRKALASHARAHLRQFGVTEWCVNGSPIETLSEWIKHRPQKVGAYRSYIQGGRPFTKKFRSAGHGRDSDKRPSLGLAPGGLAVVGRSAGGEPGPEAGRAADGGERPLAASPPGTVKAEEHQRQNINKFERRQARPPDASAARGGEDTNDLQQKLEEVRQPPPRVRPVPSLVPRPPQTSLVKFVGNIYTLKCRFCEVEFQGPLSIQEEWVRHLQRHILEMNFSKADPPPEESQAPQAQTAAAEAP
assay-procedure: Induction of HiBit-tagged WIZ protein degradation expressed in HEK293T cells assessed as reduction in WIZ protein level incubated for 18 hrs by luminescence based assay
Type: cell-based
Recorded AC50 values for a group of compounds are listed next.
Report the value in nM with no unit label.

Study these solved cases before continuing.
CC(C)(C)c1ccc(CN2CCCC[C@@H]2COc2ccc3c(c2)CN(C2CCC(=O)NC2=O)C3=O)cc1 (stereo partly specified) : 0.083
O=C1CCC(N2Cc3cc(OC[C@H]4CCCCN4Cc4ccc(C5=CCOCC5)cc4)ccc3C2=O)C(=O)N1 (stereo partly specified) : 0.35
O=C1CCC(N2Cc3cc(OC[C@H]4CCCCN4Cc4ccc5c(c4)OC(F)(F)O5)ccc3C2=O)C(=O)N1 (stereo partly specified) : 0.47
COc1ccc(CN2CCCC[C@@H]2COc2ccc3c(c2)CN(C2CCC(=O)NC2=O)C3=O)c(OC)c1 (stereo partly specified) : 0.52
O=C1CCC(N2Cc3cc(OC[C@H]4CCCCN4Cc4ccc(C5(C(F)(F)F)CC5)cc4)ccc3C2=O)C(=O)N1 (stereo partly specified) : 0.22

With those in mind, consider the next compound.
(Q) Field: AC50 (UniProt:O95785). Entry: O=C1CCC(N2Cc3cc(OC[C@H]4CCCCN4Cc4ccc(N5CCCCC5)cc4)ccc3C2=O)C(=O)N1 (stereo partly specified)
(A) 0.37
